- subject_of_test: T1, WWOX WW1 (amino acids 16-50) (human)
- T1 chain: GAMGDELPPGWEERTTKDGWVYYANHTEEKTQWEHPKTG
- assay_remarks: ITC
Measured Kd, listed per entry for reference.
Respond numerically; units are µM and should not be typed.

INSERT INTO assay_data (binder, parameter_measured, result_number) VALUES
  ('GTVLPPPPYRHRNGGGGGTVLPPPPYRHRN [ErbB4 double-motif peptide PY3PY3 (polyglycine linker)]', 'Kd', 50);

Would you kindly look at the next entry?
Query block: Look at this binder and give its reported Kd. GTVLPPPPYRHRN [ErbB4 peptide PY3 (1293-1305)]
Result block: 78
